Assay: P-glycoprotein substrates identified in KB-8-5-11 adenocarcinoma cell line, qHTS therapeutic library screen (AID 1346987); note: nearly all actives have a fitted effect of over 65% in size; note: potency is the fitted concentration of half-maximal effect
Details: KB-8-5-11 (P-gp overexpressing) viability, CellTiter-Glo, 72 h; series mostly up to 44.5 µM
Records with an inconclusive call do not appear. The source made the active and inactive calls. Calls come from the whole dose curve; as a rule, active = well fitted inhibition curve with a large enough effect; inconclusive = small, poorly fitted or top-dose-only effect; inactive = flat fitted curve, though single readings scatter.
experimental_endpoint: Potency

compound: CCC(=O)OCC(=O)[C@@]1(OC(=O)CC)[C@@H](C)C[C@H]2[C@@H]3CCC4=CC(=O)C=C[C@]4(C)[C@@]3(Cl)[C@@H](O)C[C@@]21C
value: inactive

compound: CC1=CC2/C=C(\C)CCC(O)C(=O)C(O)CC(=O)C23C(=O)NC(CC(C)C)C3C1C (stereo not drawn)
value: inactive

compound: CC(=O)O[C@H]1CC[C@@]2(C)C(=CC[C@H]3[C@@H]4CC[C@H](C(C)=O)[C@@]4(C)CC[C@@H]32)C1
value: inactive

compound: CCCCCCCCCCCCCCCC(=O)OC/C=C(C)/C=C/C=C(C)/C=C/C1=C(C)CCCC1(C)C
value: inactive

compound: COc1ccc2cc(-c3cc(-c4cc(Cl)cc(Cl)c4)nn3C(C)c3ccc(C(=O)NCCC(=O)O)cc3)ccc2c1 (stereo not drawn)
value: inactive

compound: CC1(NC(=O)c2ccc(C#Cc3cccc(F)c3)cn2)COC1
value: inactive

compound: O=C(NC1CCN(CCCCC2(C(=O)NCC(F)(F)F)c3ccccc3-c3ccccc32)CC1)c1ccccc1-c1ccc(C(F)(F)F)cc1
value: 20.6 µM (active)

compound: C=CC(=O)Nc1ccc2ncnc(Nc3cccc(Br)c3)c2c1
value: 8.2 µM (active)

Where do the numbers come from? From PubChem BioAssay (NCATS).
